# ASSAY TARGET: H₁ receptor (Mus musculus, UniProt P70174)
# Construct: A cerebral cortex of a mouse orally administered with Compound I of the present invention is homogenized to prepare a receptor sample; from tissue; host or cells: mouse (Slc-ddY, male) cerebral cortex homogenate after oral dosing
# Sequence (P70174 whole entry): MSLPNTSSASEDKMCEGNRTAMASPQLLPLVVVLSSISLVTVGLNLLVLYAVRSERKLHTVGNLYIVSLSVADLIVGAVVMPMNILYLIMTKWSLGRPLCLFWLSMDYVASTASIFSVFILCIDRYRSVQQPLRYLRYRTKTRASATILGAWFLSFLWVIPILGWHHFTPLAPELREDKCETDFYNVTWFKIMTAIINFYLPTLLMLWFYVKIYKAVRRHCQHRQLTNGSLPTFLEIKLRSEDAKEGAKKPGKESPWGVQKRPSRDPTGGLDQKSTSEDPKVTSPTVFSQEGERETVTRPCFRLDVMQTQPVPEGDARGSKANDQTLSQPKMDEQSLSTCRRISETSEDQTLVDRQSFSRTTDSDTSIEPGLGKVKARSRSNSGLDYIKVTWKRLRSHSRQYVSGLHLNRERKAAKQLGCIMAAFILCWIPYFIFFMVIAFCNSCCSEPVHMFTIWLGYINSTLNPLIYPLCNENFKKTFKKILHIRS
# METHOD: H1 receptor binding inhibition test ex vivo (migration to the brain, [3H]-pyrilamine binding to cerebral cortex after oral dosing)
# Assay type: in vivo
# EXPERIMENTAL SETUP: Slc-ddY male mice, 10 mg/kg orally, cerebral cortex removed 60 minutes after administration, [³H]-pyrilamine 4 nM, lower inhibition = lower migration to brain, read-out: [³H]-labeled pyrilamine binding inhibition ex vivo
MEASURED PROPERTY: inhibition at 10 mg/kg (%)

Some compounds with recorded inhibition at 10 mg/kg:
SMILES CODE	inhibition at 10 mg/kg [%]
O=C(NCCCN1CCC(=C(c2ccccc2)c2ccccc2)CC1)N1CCN(c2ncccn2)CC1	0
O=C(NCCCN1CCC(=C(c2ccccc2)c2ccccc2)CC1)N1CCN(S(=O)(=O)c2cccc3cccnc23)CC1	0
CCOC(=O)N1CCN(C(=O)NCCCN2CCC(OC(c3ccc(F)cc3)c3ccc(F)cc3)CC2)CC1	0
O=C(NCCCN1CCC(OC(c2ccccc2)c2ccccc2)CC1)N1CCN(S(=O)(=O)c2cccc3cccnc23)CC1	0

1 = CC(C)(C)OC(=O)N1CCN(C(=O)NCCCN2CCC(=C(c3ccccc3)c3ccccc3)CC2)CC1
2 = O=C(NCCN1CCN(C(c2ccccc2)c2ccccc2)CC1)N1CCN(c2ccccn2)CC1
3 = O=C(NCCCN1CCN(C(c2ccc(F)cc2)c2ccc(F)cc2)CC1)N1CCN(c2ccccn2)CC1
Ordering: ascending inhibition at 10 mg/kg. Response field: labels, in requested order.
2, 1, 3

----------
# ASSAY TARGET: H₁ receptor (Mus musculus, UniProt P70174)
# Construct: A cerebral cortex of a mouse orally administered with Compound I of the present invention is homogenized to prepare a receptor sample; from tissue; host or cells: mouse (Slc-ddY, male) cerebral cortex homogenate after oral dosing
# METHOD: H1 receptor binding inhibition test ex vivo (migration to the brain, [3H]-pyrilamine binding to cerebral cortex after oral dosing)
# Format: in vivo
# EXPERIMENTAL SETUP: Slc-ddY male mice, 10 mg/kg orally, cerebral cortex removed 60 minutes after administration, [³H]-pyrilamine 4 nM, lower inhibition = lower migration to brain, read-out: [³H]-labeled pyrilamine binding inhibition ex vivo
MEASURED PROPERTY: inhibition at 10 mg/kg (%)

Guide cases for inhibition at 10 mg/kg, answers given:
COMPOUND	MEASURED PROPERTY	OBSERVED RESULT
O=C1CSCCN1C(=O)NCCCN1CCC(OC(c2ccc(F)cc2)c2ccc(F)cc2)CC1	inhibition at 10 mg/kg	9
O=C1CCCN1C(=O)NCCCCCN1CCN(C(c2ccccc2)c2ccccc2)CC1	inhibition at 10 mg/kg	5
O=C(NCCN1CCC(=C(c2ccccc2)c2ccccc2)CC1)N1CCN(c2ccccn2)CC1	inhibition at 10 mg/kg	0

1 = O=c1[nH]c2ccccc2n1CCCN1CCN(C(c2ccccc2)c2ccccc2)CC1 [Oxatoamide, reference compound]
2 = O=C(NCCCN1CCC(OC(c2ccccc2)c2ccccc2)CC1)N1CCN(C(c2ccccc2)c2ccccc2)CC1
Endpoint returns whichever of 1 and 2 has the numerically higher inhibition at 10 mg/kg. # respond with the chosen item's label
1

----------
# ASSAY TARGET: H₁ receptor (Mus musculus)
# Construct: A cerebral cortex of a mouse orally administered with Compound I of the present invention is homogenized to prepare a receptor sample; from tissue; host or cells: mouse (Slc-ddY, male) cerebral cortex homogenate after oral dosing
# METHOD: H1 receptor binding inhibition test ex vivo (migration to the brain, [3H]-pyrilamine binding to cerebral cortex after oral dosing)
# Assay type: in vivo
# EXPERIMENTAL SETUP: Slc-ddY male mice, 10 mg/kg orally, cerebral cortex removed 60 minutes after administration, [³H]-pyrilamine 4 nM, lower inhibition = lower migration to brain, read-out: [³H]-labeled pyrilamine binding inhibition ex vivo
Known inhibition at 10 mg/kg of a selection of molecules
Return type: number; implicit unit %.

Examples with their reported inhibition at 10 mg/kg follow.
SMILES CODE	ASSAY TARGET	inhibition at 10 mg/kg (%)
O=C(NCCCN1CCC(OC(c2ccc(F)cc2)c2ccc(F)cc2)CC1)N1CCN(c2ccccn2)CC1	H₁ receptor (Mus musculus)	2
O=C(NCCCN1CCC(OC(c2ccccc2)c2ccccc2)CC1)N1CCN(c2ncccn2)CC1	H₁ receptor (Mus musculus)	6
O=C(NCCCN1CCC(OC(c2ccccc2)c2ccccc2)CC1)N1CCN(S(=O)(=O)c2cccnc2)CC1	H₁ receptor (Mus musculus)	6

What does the data say about its inhibition at 10 mg/kg? Entry: CC(C)(C)OC(=O)N1CCN(C(=O)NCCCN2CCC(OC(c3ccccc3)c3ccccc3)CC2)CC1
2
